// values below are reported OSBP (FP) inhibition
# Experimental system: OSBP (Homo sapiens)
# Construct: OSBP(377-807); host or cells: E. coli OverExpress C41
# Sequence (P22059 377-807): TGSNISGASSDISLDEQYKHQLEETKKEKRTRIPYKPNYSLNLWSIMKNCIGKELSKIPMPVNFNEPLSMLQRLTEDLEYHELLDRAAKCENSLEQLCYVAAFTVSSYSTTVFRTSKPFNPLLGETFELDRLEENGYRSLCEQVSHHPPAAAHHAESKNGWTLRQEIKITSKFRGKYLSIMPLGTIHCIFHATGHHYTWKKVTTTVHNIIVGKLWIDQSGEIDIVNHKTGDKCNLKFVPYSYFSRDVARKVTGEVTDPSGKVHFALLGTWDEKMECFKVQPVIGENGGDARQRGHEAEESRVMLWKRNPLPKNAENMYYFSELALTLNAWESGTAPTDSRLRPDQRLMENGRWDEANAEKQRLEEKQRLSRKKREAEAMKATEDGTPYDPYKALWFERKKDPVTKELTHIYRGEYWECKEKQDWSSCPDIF
# Protocol notes: Fluorescence polarisation (FP) competition with NBD-cholesterol, OSBP
# Type: binding
# Condition parameters: single dose, Dose = 10 µM
# From the text: Protein expression constructs Human ASTER domains of Aster-A(359-547), -B(364-552) and -C(318-504) were subcloned into a pGEX-6p-2rbs vector, thus introducing the cloning artifact ‘GPLGS’.3 The pGEX-6P-1-GST-OSBP(377- […] a gift from James H. Hurley (University of California).4 The pHIS_2His6_Thrombin_STARD4(2-205;C75S) plasmid was a gift from Young Jun Im (Chonnam National University).5 STARD5A was a gift from Nicola Burgess-Brown (Addgene plasmid #42392; http://n2t.net/addgene:42392; […]
Assay metric: OSBP (FP) inhibition (%)

{"Molecule": "C[C@]12CC[C@@H](O)C[C@H]1CCc1c2[nH]c2ccc(Cl)cc12 [Compound 10c]", "Experimental system": "OSBP (Homo sapiens)", "Unit info": "%", "Readout value": -10.0}
{"Molecule": "CCCCCN(c1ccc2c(c1)[C@@]13CC[C@@H]4C[C@@H](CC[C@@]41C)OC3=N2)c1ccc2c(c1)[C@@]13CC[C@@H]4C[C@@H](CC[C@@]41C)OC3=N2 [Compound 20b]", "Experimental system": "OSBP (Homo sapiens)", "Unit info": "%", "Readout value": 34.5}
{"Molecule": "C[C@]12CC[C@@H](O)C[C@H]1CCC(=O)c1ccccc1NC2=O [Compound 11a]", "Experimental system": "OSBP (Homo sapiens)", "Unit info": "%", "Readout value": 2.7}
{"Molecule": "C[C@]12CC[C@@H](O)C[C@H]1CCc1c2nc2ccc(Cl)cc2c1-c1ccccc1", "Experimental system": "OSBP (Homo sapiens)", "Unit info": "%", "Readout value": 10.6}
{"Molecule": "C[C@]12CC[C@@H](O)C[C@H]1CCc1nc3cc(F)c(F)cc3nc12", "Experimental system": "OSBP (Homo sapiens)", "Unit info": "%", "Readout value": 8.0}
{"Molecule": "C[C@]12CC[C@@H](O)C[C@H]1CCc1c2nc2ccccc2c1-c1ccccc1", "Experimental system": "OSBP (Homo sapiens)", "Unit info": "%", "Readout value": -12.0}
{"Molecule": "C[C@]12CC[C@@H](O)C[C@H]1CCc1c2[nH]c2ccc(Br)cc12 [Compound 10b]", "Experimental system": "OSBP (Homo sapiens)", "Unit info": "%", "Readout value": -12.0}
{"Molecule": "CCOC(=O)c1ccc2[nH]c3c(c2c1)CC[C@@H]1C[C@H](O)CC[C@]31C [Compound 10k]", "Experimental system": "OSBP (Homo sapiens)", "Unit info": "%", "Readout value": 2.0}
{"Molecule": "C[C@]12CC[C@@H](O)C[C@H]1CCc1c2[nH]c2ccccc12 [Compound 10a]", "Experimental system": "OSBP (Homo sapiens)", "Unit info": "%", "Readout value": 1.3}
